Source: ChEMBL document CHEMBL2417401

tested on: Influenza A virus; assay: Antiviral activity against Influenza A/PR8/34 (H1N1) virus infected in MDCK2 cells assessed as raft modulation using perylene as tracer relative to control; format: functional, A/Puerto Rico/8/1934(H1N1), MDCK-II; design: concentration or dose not given beside the values
If the reported Activity equals or exceeds -40%, assign Met. If not, assign Not met.

Would you please look over these solved cases?
molecule	answerLabel
CC(C)CCC[C@@H](C)[C@H]1CC[C@H]2[C@@H]3CC[C@H]4C[C@H](CN)CC[C@]4(C)[C@H]3CC[C@]12C	Not met
CC(C)CCCC(C)C1CCC2C3CCC4CC(N)CCC4(C)C3CCC12C (configuration not stated)	Not met
CC(C)CCC[C@@H](C)[C@H]1CC[C@H]2[C@@H]3CC[C@H]4C[C@](O)(CN)CC[C@]4(C)[C@H]3CC[C@]12C	Not met
CC(C)CCC[C@@H](C)[C@H]1CC[C@H]2[C@@H]3CC[C@H]4C[C@@H](CN)CC[C@]4(C)[C@H]3CC[C@]12C	Not met
CC(C)CCC[C@@H](C)[C@H]1CC[C@H]2[C@@H]3CC[C@@]4(O)[C@H](O)[C@@H](O)CC[C@]4(C)[C@H]3CC[C@]12C	Not met
CC(C)CCC[C@@H](C)[C@H]1CC[C@H]2[C@@H]3CC[C@H]4C[C@@H]([N+](C)(C)C)CC[C@]4(C)[C@H]3CC[C@]12C.[I-]	Met

Then this molecule:
Decide: Activity of CC(C)CCC[C@@H](C)[C@H]1CC[C@H]2[C@@H]3CC[C@H]4C[C@H](O)[C@@H](N)C[C@]4(C)[C@H]3CC[C@]12C >= -40%?
Met

---

test system: Influenza A virus; assay: Antiviral activity against Influenza A/PR8/34 (H1N1) virus infected in MDCK2 cells assessed as raft modulation using perylene as tracer relative to control; format: functional, A/Puerto Rico/8/1934(H1N1), MDCK-II; set-up: concentration or dose not given beside the values
Rule: Activity below -40% gives y. Equal to or above -40% gives n.

smilesCode	answerLabel
CC(C)CCC[C@@H](C)[C@H]1CC[C@H]2[C@@H]3CC[C@H]4C[C@@H](N(C)C)CC[C@]4(C)[C@H]3CC[C@]12C	n
CN[C@H]1CC[C@@]2(C)[C@@H](CC[C@@H]3[C@@H]2CC[C@]2(C)[C@@H]([C@H](C)CCCC(C)C)CC[C@@H]32)C1	y
CC(C)CCC[C@@H](C)[C@H]1CC[C@H]2[C@@H]3CC[C@H]4C[C@@H](CCN)CC[C@]4(C)[C@H]3CC[C@]12C	n
CC(C)CCC[C@@H](C)[C@H]1CC[C@H]2[C@@H]3CC[C@H]4C[C@H](N)CC[C@]4(C)[C@H]3CC[C@]12C	y

Please determine if CC(C)CCC[C@@H](C)[C@H]1CC[C@H]2[C@@H]3CC[C@H]4NCCC[C@]4(C)[C@H]3CC[C@]12C is below -40% in terms of Activity.
n

Please determine if CC(C)CCC[C@@H](C)[C@H]1CC[C@H]2[C@@H]3CC=C4C[C@@H](N)CC[C@]4(C)[C@H]3CC[C@]12C is below -40% in terms of Activity.
n

---

test system: Influenza A virus; assay: Antiviral activity against Influenza A/PR8/34 (H1N1) virus infected in MDCK2 cells assessed as inhibition of virus reproduction by ELISA; type: functional, organism-based; details: A/Puerto Rico/8/1934(H1N1), MDCK-II
observedProperty: IC90 (µM)
Numbers only, in µM.

// worked examples, IC90 included
compound	assayedTarget	observedProperty	obsValue
CC(C)CCC[C@@H](C)[C@H]1CC[C@H]2[C@@H]3CC[C@H]4C[C@H](CN)CC[C@]4(C)[C@H]3CC[C@]12C	Influenza A virus	IC90	7.7
CC(C)CCC[C@@H](C)[C@H]1CC[C@H]2[C@@H]3CC[C@H]4C[C@](O)(CN)CC[C@]4(C)[C@H]3CC[C@]12C	Influenza A virus	IC90	21.5
CN[C@H]1CC[C@@]2(C)[C@@H](CC[C@@H]3[C@@H]2CC[C@]2(C)[C@@H]([C@H](C)CCCC(C)C)CC[C@@H]32)C1	Influenza A virus	IC90	17.5
CC(C)CCC[C@@H](C)[C@H]1CC[C@H]2[C@@H]3CC[C@H]4C[C@@H](CN)CC[C@]4(C)[C@H]3CC[C@]12C	Influenza A virus	IC90	11.6

# ---- query compound ----
Influenza A virus / IC90 / CC(C)CCCC(C)C1CCC2C3CCC4CC(N)CCC4(C)C3CCC12C (stereo unspecified) : value?
9

---

Would you kindly list MNTC for each of these compounds?
assay: Cytotoxicity against MDCK2 cells assessed as maximum tolerated concentration by lactate dehydrogenase release assay; type: cell-based, Canis lupus familiaris, MDCK-II; details: dog, read-out: MTD
One number for each entry, in µM.

// worked examples, MNTC included
compound	MNTC / µM
CC(C)CCC[C@@H](C)[C@H]1CC[C@H]2[C@@H]3CC[C@H]4C[C@@H](CCN)CC[C@]4(C)[C@H]3CC[C@]12C	50
CC(C)CCC[C@@H](C)[C@H]1CC[C@H]2[C@@H]3CC[C@H]4C[C@@H](N(C)C)CC[C@]4(C)[C@H]3CC[C@]12C	15
CN[C@H]1CC[C@@]2(C)[C@@H](CC[C@@H]3[C@@H]2CC[C@]2(C)[C@@H]([C@H](C)CCCC(C)C)CC[C@@H]32)C1	25

Hi team, please reply with MNTC for each item in this list.
1. CC(C)CCC[C@@H](C)[C@H]1CC[C@H]2[C@@H]3CC[C@H]4C[C@@H]([N+](C)(C)C)CC[C@]4(C)[C@H]3CC[C@]12C.[I-]
2. CC(C)CCC[C@@H](C)[C@H]1CC[C@H]2[C@@H]3CC[C@H]4C[C@H](N)CC[C@]4(C)[C@H]3CC[C@]12C
3. CC(C)CCC[C@@H](C)[C@H]1CC[C@H]2[C@@H]3CC[C@H]4CCNCC[C@]4(C)[C@H]3CC[C@]12C
4. CC(C)CCC[C@@H](C)[C@H]1CC[C@H]2[C@@H]3CC[C@H]4C[C@](O)(CN)CC[C@]4(C)[C@H]3CC[C@]12C
5. CC(C)CCC[C@@H](C)[C@H]1CC[C@H]2[C@@H]3CC[C@H]4C[C@H](O)[C@@H](N)C[C@]4(C)[C@H]3CC[C@]12C

12.5
15
12.5
25
75

Hi team, please reply with MNTC for each item in this list.
1. CC(C)CCC[C@@H](C)[C@H]1CC[C@H]2[C@@H]3CC[C@H]4C[C@H](CN)CC[C@]4(C)[C@H]3CC[C@]12C
2. CC(C)CCCC(C)C1CCC2C3CCC4CC(N)CCC4(C)C3CCC12C (centres undefined)
3. CC(C)CCC[C@@H](C)[C@H]1CC[C@H]2[C@@H]3CC[C@@]4(O)[C@H](O)[C@@H](O)CC[C@]4(C)[C@H]3CC[C@]12C
4. CC(C)CCC[C@@H](C)[C@H]1CC[C@H]2[C@@H]3CC[C@H]4C[C@@H](CN)CC[C@]4(C)[C@H]3CC[C@]12C
5. CC(C)CCC[C@@H](C)[C@H]1CC[C@H]2[C@@H]3CC[C@H]4NCCC[C@]4(C)[C@H]3CC[C@]12C
6. CC(C)CCC[C@@H](C)[C@H]1CC[C@H]2[C@@H]3CC=C4C[C@@H](N)CC[C@]4(C)[C@H]3CC[C@]12C

1. 37.5
2. 15
3. 15
4. 37.5
5. 15
6. 25

---

assay: Therapeutic index, ratio of MTD for MDCK2 cells to IC50 for Influenza A/PR8/34 (H1N1) virus; type: cell-based; conditions: dog, read-out: TI
If the reported selectivity ratio equals or exceeds 8, assign label 1. If not, assign label 0.

Would you please look over these solved cases?
smilesCode	answerLabel
CC(C)CCC[C@@H](C)[C@H]1CC[C@H]2[C@@H]3CC[C@H]4C[C@@H](N(C)C)CC[C@]4(C)[C@H]3CC[C@]12C	label 0
CN[C@H]1CC[C@@]2(C)[C@@H](CC[C@@H]3[C@@H]2CC[C@]2(C)[C@@H]([C@H](C)CCCC(C)C)CC[C@@H]32)C1	label 0
CC(C)CCC[C@@H](C)[C@H]1CC[C@H]2[C@@H]3CC[C@H]4C[C@@H](CCN)CC[C@]4(C)[C@H]3CC[C@]12C	label 1
CC(C)CCC[C@@H](C)[C@H]1CC[C@H]2[C@@H]3CC[C@H]4C[C@H](O)[C@@H](N)C[C@]4(C)[C@H]3CC[C@]12C	label 1
CC(C)CCC[C@@H](C)[C@H]1CC[C@H]2[C@@H]3CC[C@@]4(O)[C@H](O)[C@@H](O)CC[C@]4(C)[C@H]3CC[C@]12C	label 0
CC(C)CCC[C@@H](C)[C@H]1CC[C@H]2[C@@H]3CC[C@H]4C[C@@H]([N+](C)(C)C)CC[C@]4(C)[C@H]3CC[C@]12C.[I-]	label 0

Then this compound:
Decide: selectivity ratio of CC(C)CCC[C@@H](C)[C@H]1CC[C@H]2[C@@H]3CC[C@H]4C[C@@H](CN)CC[C@]4(C)[C@H]3CC[C@]12C >= 8?
label 1
